target: Cyclin-dependent kinase 5/CDK5 activator 1 (Homo sapiens, UniProt Q00535); assay: Inhibition of full length N-terminal GST fused human CDK5(1 to 292 residues)/ p25 (99 to 307 residues) expressed in baculovirus expression system using FL peptide as substrate preincubated for 30 mins followed by substrate addition further incubated for 60 mins by EZ reader method
Sequence (Q00535 whole entry, the tested form may be a part): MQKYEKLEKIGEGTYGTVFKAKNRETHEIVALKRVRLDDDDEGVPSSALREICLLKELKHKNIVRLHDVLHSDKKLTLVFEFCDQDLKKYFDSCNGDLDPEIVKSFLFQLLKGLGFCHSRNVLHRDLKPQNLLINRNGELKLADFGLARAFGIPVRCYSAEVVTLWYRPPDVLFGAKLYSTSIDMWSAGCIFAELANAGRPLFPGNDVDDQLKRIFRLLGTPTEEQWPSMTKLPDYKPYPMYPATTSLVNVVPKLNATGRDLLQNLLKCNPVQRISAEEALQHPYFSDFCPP
Sequence (Q15078 whole entry, further chain, the tested form may be a part): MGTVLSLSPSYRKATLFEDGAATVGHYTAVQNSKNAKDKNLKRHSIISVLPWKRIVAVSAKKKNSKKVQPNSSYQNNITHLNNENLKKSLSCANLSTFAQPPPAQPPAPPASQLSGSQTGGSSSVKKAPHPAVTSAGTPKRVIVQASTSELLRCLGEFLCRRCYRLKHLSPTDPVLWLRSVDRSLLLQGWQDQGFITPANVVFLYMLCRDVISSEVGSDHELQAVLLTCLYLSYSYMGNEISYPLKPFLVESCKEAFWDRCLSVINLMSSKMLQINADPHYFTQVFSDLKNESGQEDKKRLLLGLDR
measure_name: IC50 (nM)

cpd_smiles	unit_annotation	assay_value
CN1CCC([C@@](C)(O)c2ccc3cnc(Nc4cc(N5CCCC5)ncc4F)cc3n2)CC1	nM	0.9

P = CC(C)c1cc(Nc2cc3nc([C@](C)(O)C4CCN(C)CC4)ccc3cn2)c(F)cc1C#N
Q = CN1CCC([C@@](C)(O)c2ccc3cnc(Nc4cc(N5CCOCC5)ccc4F)cc3n2)CC1
R = OCc1ccn(-c2ccc(Nc3cc4nc(NC5CCNCC5)ccc4cn3)c(F)c2)n1
Input: List from greatest to least IC50. Record the ranking as a list of labels in the requested order.
Output: R, Q, P

====

assay: Metabolic stability in CD-1 mouse hepatocytes assessed as intrinsic clearance at 1 uM measured up to 120 mins by LC-MS/MS analysis; assay type: ADME, cell-based, Hepatocyte; conditions: read-out: CLH
measure_name: CLint scaled at 1 µM (mL/min/kg)

cpd_smiles	CLint scaled at 1 µM [mL/min/kg]
CN1CCC([C@@](C)(O)c2ccc3cnc(Nc4cc(N5CCOCC5)ncc4F)cc3n2)CC1	69
CN1CCC([C@@](C)(O)c2ccc3cnc(Nc4cc(C(F)(F)F)ncc4F)cc3n2)CC1	89

====

molecular target: CDK7/Cyclin H/MNAT1 (Homo sapiens); experiment: Inhibition of full length N-terminal GST fused human CDK7 (1 to 346 residues)/CyclinH (1 to 323 residues)/ MAT1 (1 to 309 residues) expressed in baculovirus expression system using FL peptide as substrate preincubated for 30 mins followed by substrate addition and further incubated for 90 mins by EZ reader method
Sequence (P51946 whole entry, the tested form may be a part): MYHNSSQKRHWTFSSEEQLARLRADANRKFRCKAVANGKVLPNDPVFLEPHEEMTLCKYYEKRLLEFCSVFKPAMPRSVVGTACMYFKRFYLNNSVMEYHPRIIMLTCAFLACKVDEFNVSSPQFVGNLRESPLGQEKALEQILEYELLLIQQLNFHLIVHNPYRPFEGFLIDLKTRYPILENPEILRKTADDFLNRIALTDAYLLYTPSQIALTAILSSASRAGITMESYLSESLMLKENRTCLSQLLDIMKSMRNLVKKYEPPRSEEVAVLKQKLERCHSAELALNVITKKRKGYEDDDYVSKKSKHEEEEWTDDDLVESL
Sequence (P50613 whole entry, the tested form may be a part): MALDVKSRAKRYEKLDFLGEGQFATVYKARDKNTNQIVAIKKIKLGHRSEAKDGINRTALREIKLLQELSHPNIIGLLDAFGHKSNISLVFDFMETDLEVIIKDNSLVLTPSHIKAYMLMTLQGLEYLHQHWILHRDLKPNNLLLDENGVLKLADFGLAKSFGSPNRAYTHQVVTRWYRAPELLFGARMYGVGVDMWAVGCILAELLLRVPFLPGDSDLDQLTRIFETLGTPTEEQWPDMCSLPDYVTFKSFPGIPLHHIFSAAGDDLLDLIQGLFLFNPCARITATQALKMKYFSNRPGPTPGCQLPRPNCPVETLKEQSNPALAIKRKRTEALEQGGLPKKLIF
Sequence (P51948 whole entry, further chain, the tested form may be a part): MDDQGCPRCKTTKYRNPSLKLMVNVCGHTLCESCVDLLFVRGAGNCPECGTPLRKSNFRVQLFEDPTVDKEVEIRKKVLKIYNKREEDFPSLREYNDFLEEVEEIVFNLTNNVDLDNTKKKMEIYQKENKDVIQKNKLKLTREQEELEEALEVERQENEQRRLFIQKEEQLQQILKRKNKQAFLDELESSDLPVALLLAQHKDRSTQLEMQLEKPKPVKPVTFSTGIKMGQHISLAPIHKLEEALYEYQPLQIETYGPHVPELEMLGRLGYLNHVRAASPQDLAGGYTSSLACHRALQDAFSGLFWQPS
pIC50: −log10 of the molar value.
measure_name: pIC50

Worked examples, 2 compounds total:
cpd_smiles	system_tested	pIC50
CN1CCC([C@@](C)(O)c2ccc3cnc(Nc4cc(N5CCOCC5)c(C#N)cc4F)cc3n2)CC1	CDK7/Cyclin H/MNAT1 (Homo sapiens)	6.77
CC(C)c1cc(Nc2cc3nc([C@](C)(O)C4CCN(C)CC4)ccc3cn2)c(F)cc1C#N	CDK7/Cyclin H/MNAT1 (Homo sapiens)	6.98

I = CN1CCC([C@@](C)(O)c2ccc3cnc(Nc4cc(C(F)(F)F)ncc4F)cc3n2)CC1
II = CC(=O)N1CCN(c2ccc(F)c(Nc3cc4nc([C@](C)(O)C5CCN(C)CC5)ccc4cn3)c2)CC1
III = CC(C)Oc1cc(Nc2cc3nc([C@](C)(O)C4CCN(C)CC4)ccc3cn2)c(F)cc1C#N
IV = CN1CCC([C@@](C)(O)c2ccc3cnc(Nc4cc(N5CCOCC5)ccc4F)cc3n2)CC1
Input: List from greatest to least pIC50. Record the ranking as a list of labels in the requested order.
Output: IV, III, II, I

====

target: CDK2/Cyclin A2 (Homo sapiens); assay: Inhibition of full length N-terminal GST tagged human CDK2(1 to 298 residues)/CyclinA2 (1 to 432 residues) expressed in baculovirus expression system using FL peptide as substrate preincubated for 30 mins followed by substrate addition further incubated for 120 mins by EZ reader method
pIC50: −log10 of the molar value.
measure_name: pIC50

Worked examples, 6 compounds total:
cpd_smiles	assay_value
CC(C)Nc1cc(Nc2cc3nc([C@](C)(O)C4CCN(C)CC4)ccc3cn2)c(F)cn1	6.47
CN1CCC([C@@](C)(O)c2ccc3cnc(Nc4ccc(-n5ccc(CO)n5)cc4F)cc3n2)CC1	7.19
CC(C)Oc1cc(Nc2cc3nc([C@](C)(O)C4CCN(C)CC4)ccc3cn2)c(F)cc1C#N	6.48
CC(C)c1cc(Nc2cc3nc([C@](C)(O)C4CCN(C)CC4)ccc3cn2)c(F)cn1	7.18
CC(C)Oc1ccc(F)c(Nc2cc3nc([C@](C)(O)C4CCN(C)CC4)ccc3cn2)c1	7.23
CCc1cc(Nc2cc3nc([C@](C)(O)C4CCN(C)CC4)ccc3cn2)c(F)cn1	7.33

I = CN1CCC([C@@](C)(O)c2ccc3cnc(Nc4ccc(-n5cccn5)cc4F)cc3n2)CC1
II = OCc1ccn(-c2ccc(Nc3cc4nc(NC5CCNCC5)ccc4cn3)c(F)c2)n1
III = CN1CCC([C@@](C)(O)c2ccc3cnc(Nc4ccc(S(C)(=O)=O)cc4F)cc3n2)CC1
Input: Sort (3 compounds) by pIC50: min first. Record the ranking as a list of labels in the requested order.
Output: II, I, III

====

assay: Cmax in Sprague-Dawley rat at 3 mg/kg, po measured upto 24 hrs by LC-MS/MS analysis; type: ADME, organism-based; set-up: route oral, dose 3 mg/kg, time <=24; details: in vivo
measure_name: Cmax (ng/mL)

P = CN1CCC([C@@](C)(O)c2ccc3cnc(Nc4cc(C(F)(F)F)ncc4F)cc3n2)CC1
Q = CN1CCC([C@@](C)(O)c2ccc3cnc(Nc4cc(N5CCOCC5)ncc4F)cc3n2)CC1
Input: Identify the entry with the larger Cmax. Options: P and Q State the label of the item chosen.
Output: P
(P: 83 ng/mL, Q: 19 ng/mL)

====

biological target: CDK2/Cyclin A2 (Homo sapiens); assay: Inhibition of full length N-terminal GST tagged human CDK2(1 to 298 residues)/CyclinA2 (1 to 432 residues) expressed in baculovirus expression system using FL peptide as substrate preincubated for 30 mins followed by substrate addition further incubated for 120 mins by EZ reader method
pIC50: −log10 of the molar value.
measure_name: pIC50

cpd_smiles	pIC50
CC(C)Oc1cc(Nc2cc3nc([C@](C)(O)C4CCN(C)CC4)ccc3cn2)c(F)cn1	7.01
CN1CCC([C@@](C)(O)c2ccc3cnc(Nc4cc(OC5CCC5)ncc4F)cc3n2)CC1	6.68
CN1CCC([C@@](C)(O)c2ccc3cnc(Nc4cc(N5CC6CCC(C5)O6)c(C#N)cc4F)cc3n2)CC1	6.78
CN1CCC([C@@](C)(O)c2ccc3cnc(Nc4cc(N5CCOCC5)ncc4F)cc3n2)CC1	6.52
CC(=O)N1CCN(c2ccc(F)c(Nc3cc4nc([C@](C)(O)C5CCN(C)CC5)ccc4cn3)c2)CC1	6.52
CN1CCC([C@@](C)(O)c2ccc3cnc(Nc4ccc(-c5cccn(C)c5=O)cc4F)cc3n2)CC1	6.58

I = CN1CCC([C@@](C)(O)c2ccc3cnc(Nc4ccccc4F)cc3n2)CC1
II = CN1CCC([C@@](C)(O)c2ccc3cnc(Nc4cc(C(F)(F)F)c(C#N)cc4F)cc3n2)CC1
III = CN1CCC([C@@](C)(O)c2ccc3cnc(Nc4ccc(-c5cccc(C#N)c5)cc4F)cc3n2)CC1
Input: Sort (3 compounds) by pIC50: min first. Record the ranking as a list of labels in the requested order.
Output: II, I, III
(II: 6.67, I: 7.32, III: 7.64)

====

test: Oral bioavailability in Sprague-Dawley rat at 3 mg/kg measured upto 24 hrs by LC-MS/MS analysis; type: ADME, organism-based; settings: in vivo
measure_name: bioavailability (%)

A = CN1CCC([C@@](C)(O)c2ccc3cnc(Nc4cc(N5CCOCC5)ncc4F)cc3n2)CC1
B = CN1CCC([C@@](C)(O)c2ccc3cnc(Nc4cc(C(F)(F)F)ncc4F)cc3n2)CC1
Input: Please indicate which has the smaller reported bioavailability: A , or B . State the label of the item chosen.
Output: A

====

biological target: Cyclin-dependent kinase 5/CDK5 activator 1 (Homo sapiens, UniProt Q00535); assay: Inhibition of full length N-terminal GST fused human CDK5(1 to 292 residues)/ p25 (99 to 307 residues) expressed in baculovirus expression system using FL peptide as substrate preincubated for 30 mins followed by substrate addition further incubated for 60 mins by EZ reader method
pIC50: −log10 of the molar value.
measure_name: pIC50

Worked examples, 5 molecules total:
cpd_smiles	measure_name	assay_value
C#Cc1cc(F)c(Nc2cc3nc([C@](C)(O)C4CCN(C)CC4)ccc3cn2)cc1N1CCOCC1	pIC50	6.19
CC(C)Oc1cc(Nc2cc3nc([C@](C)(O)C4CCN(C)CC4)ccc3cn2)c(F)cn1	pIC50	8.92
CN1CCC([C@@](C)(O)c2ccc3cnc(Nc4cc(OC5CCC5)ncc4F)cc3n2)CC1	pIC50	8.52
CN1CCC([C@@](C)(O)c2ccc3cnc(Nc4ccc(-c5cccc(C#N)c5)cc4F)cc3n2)CC1	pIC50	9.70
CN1CCC([C@@](C)(O)c2ccc3cnc(Nc4ccc(-n5cccn5)cc4F)cc3n2)CC1	pIC50	9.10

a = CN1CCC([C@@](C)(O)c2ccc3cnc(Nc4ccc(-c5cccn(C)c5=O)cc4F)cc3n2)CC1
b = CN1CCC([C@@](C)(O)c2ccc3cnc(Nc4ccc(S(C)(=O)=O)cc4F)cc3n2)CC1
Input: Identify the entry with the larger pIC50. Options: a and b State the label of the item chosen.
Output: b
(b: 9.22, a: 8.55)

1 = CCc1cc(Nc2cc3nc([C@](C)(O)C4CCN(C)CC4)ccc3cn2)c(F)cn1
2 = OCc1ccn(-c2ccc(Nc3cc4nc(OC5CCNCC5)ccc4cn3)c(F)c2)n1
Input: Please indicate which has the smaller reported pIC50: 1 , or 2 . State the label of the item chosen.
Output: 2
(2: 7.80, 1: 9.05)

A = CN1CCC([C@@](C)(O)c2ccc3cnc(Nc4ccc(-n5ccc(CO)n5)cc4F)cc3n2)CC1
B = CC(C)Nc1cc(Nc2cc3nc([C@](C)(O)C4CCN(C)CC4)ccc3cn2)c(F)cn1
Input: Identify the entry with the larger pIC50. Options: A and B State the label of the item chosen.
Output: A
(A: 9.00, B: 8.20)

a = CN1CCC([C@@](C)(O)c2ccc3cnc(Nc4cc(C(F)(F)F)ccc4F)cc3n2)CC1
b = CN1CCC([C@@H](O)c2ccc3cnc(Nc4ccc(-n5ccc(CO)n5)cc4F)cc3n2)CC1
Input: Please indicate which has the smaller reported pIC50: a , or b . State the label of the item chosen.
Output: b
(b: 8.23, a: 8.92)
